The label depends only on boiling point: criterion met if it is at least 200 °C, criterion not met if it is smaller.

Ask: Entry C=CCCC=O : is its boiling point no less than 200 °C?
Reply: criterion not met

Ask: Form field: boiling point at least 200 °C? Entry: CC(C)(C)S
Reply: criterion not met

Ask: Is the recorded value of boiling point equal to or greater than 200 °C for this compound? CCc1ccccc1N
Reply: criterion met

Ask: hey, is boiling point for this one >= 200 °C? COC(=O)C(C)(C)O
Reply: criterion not met

Ask: Does CCC(C)(Cl)Cl have a reported boiling point of at least 200 °C?
Reply: criterion not met

Ask: Reported boiling point at or above 200 °C? CC(CCN(C)C)N(C)C (stereo not drawn)
Reply: criterion not met

Ask: Is boiling point at least 200 °C? Consider CC1=CC(=O)CC(C)(C)C1
Reply: criterion met

Ask: Can CC(C)COC(=O)c1ccccc1O be said to have boiling point at or above 200 °C?
Reply: criterion met

Ask: Entry C[Si](C)(C)CO : is its boiling point no less than 200 °C?
Reply: criterion not met

Ask: Determine whether this compound has boiling point no lower than 200 °C: O=C=Nc1ccc(Br)cc1
Reply: criterion met

Ask: Quick check, boiling point >= 200 °C? O=Cc1ccc(F)cc1
Reply: criterion not met

Ask: Answer whether boiling point of CC(C)c1ccc2ccccc2c1 is greater than or equal to 200 °C.
Reply: criterion met

Ask: Is reported boiling point greater than or equal to 200 °C here: C#CCCCCC
Reply: criterion not met

Ask: Evaluate CCOc1ccccc1O : boiling point at minimum 200 °C?
Reply: criterion met

Ask: Check the entry CCCCCCCCCCCCCCCCCC(=O)OCCCC : does boiling point equal or exceed 200 °C?
Reply: criterion met

Ask: Check this compound for boiling point at or above 200 °C: BrC=CBr
Reply: criterion not met

Ask: Quick check, boiling point >= 200 °C? CC(Cl)C(Cl)CCl (stereo not drawn)
Reply: criterion not met

Ask: Determine whether measured boiling point meets or exceeds 200 °C for CCCCCCC(Cl)Cl
Reply: criterion not met

Ask: Entry Nc1c(Br)cccc1Br : is its boiling point no less than 200 °C?
Reply: criterion met

Ask: Is boiling point at least 200 °C? Consider CCCCCCCCOCCCCCCCC
Reply: criterion met

Ask: Is it the case that C#CC1(O)CCCCC1 has boiling point reaching or exceeding 200 °C?
Reply: criterion not met

Ask: Confirm if boiling point reported for the compound CCOc1cccc(C)c1 is 200 °C or above.
Reply: criterion not met

Ask: Hello, I need to know if c1ccc2[nH]nnc2c1 has measured boiling point not below 200 °C. Thanks!
Reply: criterion met

Ask: Is it the case that CC(=O)COC(C)=O has boiling point reaching or exceeding 200 °C?
Reply: criterion not met

Ask: Hi, just wondering whether ClC=C(Cl)CCl shows boiling point of 200 °C or higher.
Reply: criterion not met

// data source = the OPERA property sets (Mansouri et al. 2018)
